Listing: IC50 of selected compounds
Target: VIM-1 (Pseudomonas aeruginosa (strain ATCC 15692 / DSM 22644 / CIP 104116 / JCM 14847 / LMG 12228 / 1C / PRS 101 / PAO1), UniProt A0A0F7KYQ8)
Assay: biochemical
Conditions: CCF2-FA substrate, 2 hours at 25° C
Give your result in nM as a bare value.

Some compounds with known IC50 results, for comparison:
{"COMPOUND": "Nc1nc2c(-c3ccc(S(=O)(=O)[C@H]4CN[C@H](CO)C4)c(S(N)(=O)=O)c3-c3nn[nH]n3)cccc2s1", "REPORTED VALUE": 0.332}
{"COMPOUND": "Nc1cn2cccc(-c3ccc(S(=O)(=O)C4CNC4)c(S(N)(=O)=O)c3-c3nnn[nH]3)c2n1", "REPORTED VALUE": 0.627}
{"COMPOUND": "Nc1nc2cccc(-c3ccc(S(=O)(=O)C4CNC4)c(S(N)(=O)=O)c3-c3nn[nH]n3)c2s1", "REPORTED VALUE": 0.16}
{"COMPOUND": "COc1ccc(Cc2cc3c(-c4ccc(S(=O)(=O)C5CNC5)c(S(N)(=O)=O)c4-c4nnn[nH]4)cccc3n2C)cc1", "REPORTED VALUE": 0.356}
{"COMPOUND": "NC[C@@H](O)CS(=O)(=O)c1ccc(-c2cccnc2N)c(-c2nn[nH]n2)c1S(N)(=O)=O", "REPORTED VALUE": 0.703}

input: IC50 for "Nc1c(-c2ccc(S(=O)(=O)C3CNC3)c(S(N)(=O)=O)c2-c2nn[nH]n2)cccc1S(N)(=O)=O" ?
output: 0.607

input: // query: "CC(C)(N)CS(=O)(=O)c1ccc(-c2cccc3sc(N)nc23)c(-c2nn[nH]n2)c1S(N)(=O)=O"
output: 0.222

###

Target: VIM-1 (Pseudomonas aeruginosa (strain ATCC 15692 / DSM 22644 / CIP 104116 / JCM 14847 / LMG 12228 / 1C / PRS 101 / PAO1))
Experiment: biochemical
Conditions: CCF2-FA substrate, 2 hours at 25° C
pIC50: −log10 of the molar value.
Threshold check on pIC50: at or above 9 gives met, strictly below gives not met.

Study these solved cases before continuing.
{"MOLECULE SMILES": "CS(=O)(=O)c1ccc(-c2cccc3nc(N)[nH]c23)c(-c2nn[nH]n2)c1S(N)(=O)=O", "LABEL": "not met"}
{"MOLECULE SMILES": "NC[C@@H](O)CS(=O)(=O)c1ccc(-c2cccc3[nH]c(N)nc23)c(-c2nn[nH]n2)c1S(N)(=O)=O", "LABEL": "met"}

input: Identify whether the reported pIC50 of the following compound is 9 or greater: "C[C@@H](CN)S(=O)(=O)c1ccc(-c2cccc3nc(N)[nH]c23)c(-c2nn[nH]n2)c1S(N)(=O)=O"
output: met

###

Target: VIM-1 (Pseudomonas aeruginosa (strain ATCC 15692 / DSM 22644 / CIP 104116 / JCM 14847 / LMG 12228 / 1C / PRS 101 / PAO1))
Assay: biochemical
Details: CCF2-FA substrate, 2 hours at 25° C
PARAMETER MEASURED: IC50 (nM)
The reply should be a number in nM, with the unit left off.

input: What measured IC50 goes with NS(=O)(=O)c1c(S(=O)(=O)C2CNC2)ccc(-c2ccc3scnc3c2)c1-c1nnn[nH]1.O=C(O)C(F)(F)F [Example 114, 2,2,2-trifluoroacetate] ?
output: 0.116

input: And Nc1nc2cccc(-c3ccc(S(=O)(=O)[C@H]4C[C@@H](N)C4)c(S(N)(=O)=O)c3-c3nn[nH]n3)c2[nH]1 [Example 176] ?
output: 0.831

input: Now the same for N=C(N)Nc1ccccc1-c1ccc(S(=O)(=O)C2CNC2)c(S(N)(=O)=O)c1-c1nn[nH]n1 [Example 221]
output: 6.95

###

Molecular target: VIM-1 (Pseudomonas aeruginosa (strain ATCC 15692 / DSM 22644 / CIP 104116 / JCM 14847 / LMG 12228 / 1C / PRS 101 / PAO1), UniProt A0A0F7KYQ8)
Assay: biochemical
Conditions: CCF2-FA substrate, 2 hours at 25° C
PARAMETER MEASURED: log10(IC50) (log10 of the value in nM)
Note: values are log10 of IC50 expressed in nM.

{"MOLECULE": "NCCS(=O)(=O)c1ccc(-c2ccccc2NC(=O)CN)c(-c2nn[nH]n2)c1S(N)(=O)=O", "log10(IC50)": 0.91}

input: Please look up its log10(IC50): "C[C@@H](N)CS(=O)(=O)c1ccc(-c2cccc3sc(N)nc23)c(-c2nn[nH]n2)c1S(N)(=O)=O"
output: -0.48

input: Request: "Nc1ccc2ncc(-c3ccc(S(=O)(=O)C4CNC4)c(S(N)(=O)=O)c3-c3nn[nH]n3)n2n1"
output: -0.15

input: One more molecule: "Nc1nc2c(-c3ccc(S(=O)(=O)CCN4CCOCC4)c(S(N)(=O)=O)c3-c3nn[nH]n3)cccc2s1"
output: -0.34

input: Please give the result for "NCCS(=O)(=O)c1ccc(-c2cccc3ncccc23)c(-c2nn[nH]n2)c1S(N)(=O)=O" too.
output: -0.86

input: Moving on to the next molecule: "NC[C@H](O)CS(=O)(=O)c1ccc(-c2cccnc2N)c(-c2nn[nH]n2)c1S(N)(=O)=O"
output: -0.25

input: Quick one: NS(=O)(=O)c1c(S(=O)(=O)C2CNC2)ccc(-c2cnc3ccccc3c2)c1-c1nnn[nH]1.O=C(O)C(F)(F)F [Example 98, 2,2,2-trifluoroacetate]
output: -0.62

###

// reported Efflux ratio for each item listed
System: P. aeruginosa expressing IMP-1, efflux+ (MB9798)
Assay type: cell-based, Pseudomonas aeruginosa
Conditions: ratio MITC95 PA_9798/MITC95 PA_9799
Just the number, please, no unit attached.

See these solved cases before continuing.
{"COMPOUND": "Nc1nc2cc(-c3ccc(SC4CNC4)c(S(N)(=O)=O)c3-c3nn[nH]n3)ccc2[nH]1 [Example 1]", "Efflux ratio": 8.00}
{"COMPOUND": "NS(=O)(=O)c1c(S(=O)(=O)C2CNC2)ccc(-c2cccc3scnc23)c1-c1nn[nH]n1 [Example 201]", "Efflux ratio": 2.00}
{"COMPOUND": "NS(=O)(=O)c1c(S(=O)(=O)C2CNC2)ccc(-c2cccc3[nH]ncc23)c1-c1nnn[nH]1.O=C(O)C(F)(F)F [Example 100]", "Efflux ratio": 4.00}
{"COMPOUND": "Nc1nc2cccc(-c3ccc(S(=O)(=O)[C@H]4CCNC4)c(S(N)(=O)=O)c3-c3nn[nH]n3)c2[nH]1 [Example 182]", "Efflux ratio": 1.00}
{"COMPOUND": "CS(=O)(=O)c1ccc(-c2ccc(N)nc2)c(-c2nn[nH]n2)c1S(N)(=O)=O [Example 237]", "Efflux ratio": 15.99}
{"COMPOUND": "Cn1cnc2cc(-c3ccc(S(=O)(=O)C4CNC4)c(S(N)(=O)=O)c3-c3nnn[nH]3)cnc21.O=C(O)C(F)(F)F [Example 103]", "Efflux ratio": 8.00}
{"COMPOUND": "NS(=O)(=O)c1c(S(=O)(=O)C2CNC2)ccc(-c2cnc3ccccc3c2)c1-c1nnn[nH]1.O=C(O)C(F)(F)F [Example 98]", "Efflux ratio": 15.99}
{"COMPOUND": "Nc1c(-c2ccc(S(=O)(=O)C3CNC3)c(S(N)(=O)=O)c2-c2nn[nH]n2)cccc1S(N)(=O)=O [Example 287]", "Efflux ratio": 2.00}
{"COMPOUND": "NS(=O)(=O)c1c(S(=O)(=O)C2CNC2)ccc(-c2ccc(CO)nc2)c1-c1nnn[nH]1.O=C(O)C(F)(F)F [Example 111]", "Efflux ratio": 4.00}
{"COMPOUND": "NCCS(=O)(=O)c1ccc(-c2cccc3ncccc23)c(-c2nn[nH]n2)c1S(N)(=O)=O [Example 324]", "Efflux ratio": 8.00}

Continue with the next compound.
input: Which Efflux ratio value is on record for Cn1ncc2cc(-c3ccc(S(=O)(=O)CCN)c(S(N)(=O)=O)c3-c3nnn[nH]3)ccc21.O=C(O)C(F)(F)F [Example 160] ?
output: 8.00

###

Target: NDM-1 (Klebsiella pneumoniae, UniProt C7C422)
Sequence (C7C422 whole entry, looked up, species assumed): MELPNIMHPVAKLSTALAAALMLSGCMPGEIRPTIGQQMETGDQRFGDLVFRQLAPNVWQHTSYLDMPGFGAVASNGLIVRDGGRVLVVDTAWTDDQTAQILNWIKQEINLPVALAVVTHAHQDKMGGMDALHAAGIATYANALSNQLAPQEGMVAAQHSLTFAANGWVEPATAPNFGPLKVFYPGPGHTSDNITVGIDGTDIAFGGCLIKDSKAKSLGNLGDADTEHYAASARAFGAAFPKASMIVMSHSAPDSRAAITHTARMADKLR
Experiment: biochemical
Type: biochemical
Conditions: CCF2-FA substrate, 2 hours at 25° C; read-out: NDM-1 IC50
pIC50: −log10 of the molar value.
Please note: 1 (yes) applies when pIC50 is 10 or greater, and 0 (no) applies otherwise.

Before answering, review these 3 worked examples.
{"COMPOUND": "NS(=O)(=O)c1c(S(=O)(=O)C2CNC2)ccc(-c2cncnc2)c1-c1nnn[nH]1.O=C(O)C(F)(F)F [Example 110, 2,2,2-trifluoroacetate]", "LABEL": "0 (no)"}
{"COMPOUND": "NC(=O)c1ccc(-c2ccc(S(=O)(=O)C3CNC3)c(S(N)(=O)=O)c2-c2nn[nH]n2)c2nc(N)sc12 [Example 39]", "LABEL": "1 (yes)"}
{"COMPOUND": "NS(=O)(=O)c1c(S(=O)(=O)C2CNC2)ccc(C2CCOCC2)c1-c1nn[nH]n1 [Example 222]", "LABEL": "0 (no)"}

Attention now shifts to the item below.
input: Dear colleague, could you confirm whether Nc1cn2cccc(-c3ccc(S(=O)(=O)C4CNC4)c(S(N)(=O)=O)c3-c3nnn[nH]3)c2n1 [Example 65] has pIC50 at or above 10?
output: 0 (no)
